Source of measurements: ChEMBL document CHEMBL1130075

- Measured On: Sodium/hydrogen exchanger (Oryctolagus cuniculus, UniProt P23791+P50482+P26432)
- Protocol Details: Inhibition of 5-N-(ethyl isopropyl)-amiloride[EIPA]-sensitive Na+ uptake into acidified rabbit erythrocytes.
- Format: functional
Metric: IC50 (nM)

# Compound, IC50 [nM]
records = [
    ("CS(=O)(=O)c1cc(C(=O)N=C(N)N)c(N)cc1N1CCCCC1", 190),
    ("Cc1cc(-n2ccnc2C)c(S(C)(=O)=O)cc1C(=O)N=C(N)N", 29),
    ("Cc1cc(O)c(S(C)(=O)=O)cc1C(=O)N=C(N)N", 220),
    ("Cc1cc(C2CCC2)c(S(C)(=O)=O)cc1C(=O)N=C(N)N", 8.2),
]

(1) Cc1ccc(S(C)(=O)=O)cc1C(=O)N=C(N)N
(2) Cc1cc(N2CCC(N)CC2)c(S(C)(=O)=O)cc1C(=O)N=C(N)N
(3) Cc1ccc(-c2ccc(C(=O)N=C(N)N)cc2S(C)(=O)=O)cc1
(4) Cc1cc(SC(C)(C)C)c(S(C)(=O)=O)cc1C(=O)N=C(N)N
(5) Cc1cc(-c2ccc(F)cc2)c(S(C)(=O)=O)cc1C(=O)N=C(N)N
Arrange these compounds by their IC50, starting with the largest number. Enter labels, ranked according to the request.
1, 3, 5, 4, 2

(a) CS(=O)(=O)c1cc(C(=O)N=C(N)N)ccc1C#N
(b) Cc1cc(Nc2ccccn2)c(S(C)(=O)=O)cc1C(=O)N=C(N)N
// select label with min value of measured IC50 from [ a , b ] # reply format: chosen label
b

----------
- Measured On: Sodium/hydrogen exchanger (Oryctolagus cuniculus, UniProt P23791+P50482+P26432)
- Protocol Details: Inhibition of 5-N-(ethyl isopropyl)-amiloride[EIPA]-sensitive Na+ uptake into acidified rabbit erythrocytes.
- Assay type: functional
Metric: IC50 (nM)

# Smiles Representation, IC50 (nM)
records = [
    ("CS(=O)(=O)c1cc(C(=O)N=C(N)N)ccc1N1CCCCC1", 130),
    ("CS(=O)(=O)c1cc(C(=O)N=C(N)N)c(F)cc1F", 630),
    ("CCc1cc(N2CCC(O)CC2)c(S(C)(=O)=O)cc1C(=O)N=C(N)N", 41),
    ("COc1cc(Cl)c(C(=O)N=C(N)N)cc1S(C)(=O)=O", 40),
    ("Cc1c(C(=O)N=C(N)N)cc(S(C)(=O)=O)c(Oc2cccnc2)c1C", 23),
    ("Cc1cc(Oc2cccnc2)c(S(C)(=O)=O)cc1C(=O)N=C(N)N", 8.8),
    ("Cc1cc(-n2cnc3ccccc32)c(S(C)(=O)=O)cc1C(=O)N=C(N)N", 100),
    ("Cc1c(C(=O)N=C(N)N)cc(S(C)(=O)=O)c(-n2ccnc2)c1C", 290),
]

(A) CCCCCc1cc(C)c(C(=O)N=C(N)N)cc1S(C)(=O)=O
(B) Cc1c(C(=O)N=C(N)N)cc(S(C)(=O)=O)c(Cl)c1[N+](=O)[O-]
Could you please tell me which of these two has the higher IC50: A or B ? Respond using the label that marks the chosen record.
B

----------
- Measured On: Sodium/hydrogen exchanger (Oryctolagus cuniculus, UniProt P23791+P50482+P26432)
- Protocol Details: Inhibition of 5-N-(ethyl isopropyl)-amiloride[EIPA]-sensitive Na+ uptake into acidified rabbit erythrocytes.
- Format: functional
Metric: IC50 (nM)

Example entries and their recorded answers appear below.
# Molecule, Measured On, IC50, nM
rows = [
    ("Cc1cc(C(C)C)c(S(C)(=O)=O)cc1C(=O)N=C(N)N", "Sodium/hydrogen exchanger (Oryctolagus cuniculus, UniProt P23791+P50482+P26432)", 2),
    ("CCCc1cc(C)c(C(=O)N=C(N)N)cc1S(C)(=O)=O", "Sodium/hydrogen exchanger (Oryctolagus cuniculus, UniProt P23791+P50482+P26432)", 5.7),
    ("CS(=O)(=O)c1cc(C(=O)N=C(N)N)ccc1C(F)(F)F", "Sodium/hydrogen exchanger (Oryctolagus cuniculus, UniProt P23791+P50482+P26432)", 140),
    ("CS(=O)(=O)c1cc(C(=O)N=C(N)N)ccc1Oc1cccnc1", "Sodium/hydrogen exchanger (Oryctolagus cuniculus, UniProt P23791+P50482+P26432)", 76),
    ("Cc1c(C(=O)N=C(N)N)cc(S(C)(=O)=O)c(C)c1C", "Sodium/hydrogen exchanger (Oryctolagus cuniculus, UniProt P23791+P50482+P26432)", 55),
    ("CS(=O)(=O)c1cc(C(=O)N=C(N)N)c(Cl)cc1Cl", "Sodium/hydrogen exchanger (Oryctolagus cuniculus, UniProt P23791+P50482+P26432)", 140),
    ("COc1ccc(C(=O)N=C(N)N)cc1S(C)(=O)=O", "Sodium/hydrogen exchanger (Oryctolagus cuniculus, UniProt P23791+P50482+P26432)", 270),
    ("Cc1cc(-n2cccc2)c(S(C)(=O)=O)cc1C(=O)N=C(N)N [ENIPORIDE]", "Sodium/hydrogen exchanger (Oryctolagus cuniculus, UniProt P23791+P50482+P26432)", 8),
    ("CS(=O)(=O)c1cc(C(=O)N=C(N)N)ccc1Br", "Sodium/hydrogen exchanger (Oryctolagus cuniculus, UniProt P23791+P50482+P26432)", 180),
]

(a) Cc1cc(Sc2ccc(Cl)cc2)c(S(C)(=O)=O)cc1C(=O)N=C(N)N
(b) CCc1cc(OC)c(S(C)(=O)=O)cc1C(=O)N=C(N)N
Compare a and b by numeric IC50 and name the larger one. State the label of the item chosen.
b

----------
- Measured On: Sodium/hydrogen exchanger (Oryctolagus cuniculus, UniProt P23791+P50482+P26432)
- Protocol Details: Inhibition of 5-N-(ethyl isopropyl)-amiloride[EIPA]-sensitive Na+ uptake into acidified rabbit erythrocytes.
- Type: functional
Metric: IC50 (nM)

# Molecule, Measured On, Metric, Measurement
rows = [
    ("Cc1cc(Sc2cccc(Cl)c2)c(S(C)(=O)=O)cc1C(=O)N=C(N)N", "Sodium/hydrogen exchanger (Oryctolagus cuniculus, UniProt P23791+P50482+P26432)", "IC50", 37),
    ("Cc1cc(OCc2ccccc2)c(S(C)(=O)=O)cc1C(=O)N=C(N)N", "Sodium/hydrogen exchanger (Oryctolagus cuniculus, UniProt P23791+P50482+P26432)", "IC50", 28),
    ("Cc1cc(Sc2ccccc2Cl)c(S(C)(=O)=O)cc1C(=O)N=C(N)N", "Sodium/hydrogen exchanger (Oryctolagus cuniculus, UniProt P23791+P50482+P26432)", "IC50", 14),
    ("Cc1cc(Sc2ccccc2)c(S(C)(=O)=O)cc1C(=O)N=C(N)N", "Sodium/hydrogen exchanger (Oryctolagus cuniculus, UniProt P23791+P50482+P26432)", "IC50", 14),
    ("Cc1c(C(=O)N=C(N)N)ccc(Cl)c1S(C)(=O)=O", "Sodium/hydrogen exchanger (Oryctolagus cuniculus, UniProt P23791+P50482+P26432)", "IC50", 130),
]

(P) Cc1c(C(=O)N=C(N)N)ccc(Oc2cccnc2)c1S(C)(=O)=O
(Q) Cc1cc(Oc2cccc(Cl)c2)c(S(C)(=O)=O)cc1C(=O)N=C(N)N
Among P and Q , which shows a numerically higher IC50 result? Refer to your chosen entry by its label in the reply.
P

----------
- Measured On: Sodium/hydrogen exchanger (Oryctolagus cuniculus, UniProt P23791+P50482+P26432)
- Protocol Details: Inhibition of 5-N-(ethyl isopropyl)-amiloride[EIPA]-sensitive Na+ uptake into acidified rabbit erythrocytes.
- Assay type: functional
Metric: IC50 (nM)

# Molecule, Metric, Measurement
data = [
    ("CCC(C)c1cc(C)c(C(=O)N=C(N)N)cc1S(C)(=O)=O (configuration not stated)", "IC50", 8),
    ("Cc1cc(C(F)(F)F)c(S(C)(=O)=O)cc1C(=O)N=C(N)N", "IC50", 37),
    ("Cc1ccc(-c2cc(C)c(C(=O)N=C(N)N)cc2S(C)(=O)=O)cc1", "IC50", 25),
    ("Cc1cc(-n2ccnc2)c(S(C)(=O)=O)cc1C(=O)N=C(N)N", "IC50", 23),
    ("Cc1cc(Br)c(C(=O)N=C(N)N)cc1S(C)(=O)=O", "IC50", 70),
    ("CS(=O)(=O)c1cc(C(=O)N=C(N)N)ccc1Cl", "IC50", 380),
    ("Cc1cc(Sc2ccncc2)c(S(C)(=O)=O)cc1C(=O)N=C(N)N", "IC50", 13),
    ("CCc1cc(Br)c(S(C)(=O)=O)cc1C(=O)N=C(N)N", "IC50", 41),
]

(P) CS(=O)(=O)c1cc(C(=O)N=C(N)N)ccc1N1CCCC(O)C1 (configuration not stated)
(Q) Cc1cc(N)c(S(C)(=O)=O)cc1C(=O)N=C(N)N
Of P and Q , whose reported IC50 is numerically smaller? Returns: label corresponding to the selected item.
Q

(I) Cc1cc(-c2ccc(Cl)cc2Cl)c(S(C)(=O)=O)cc1C(=O)N=C(N)N
(II) COc1cc(C)c(C(=O)N=C(N)N)cc1S(C)(=O)=O
(III) Cc1cc(-c2cc(C(F)(F)F)cc(C(F)(F)F)c2)c(S(C)(=O)=O)cc1C(=O)N=C(N)N
(IV) CCc1cc(N2CCCCC2)c(S(C)(=O)=O)cc1C(=O)N=C(N)N
(V) CS(=O)(=O)c1cc(C(=O)N=C(N)N)c(N)cc1Cl
Please produce an ascending ranking of these molecules based on IC50. # respond with the labels, arranged in the requested order
II, IV, I, V, III

(a) Cc1cc(-c2ccc(Cl)cc2)c(S(C)(=O)=O)cc1C(=O)N=C(N)N
(b) Cc1cc(-n2cccn2)c(S(C)(=O)=O)cc1C(=O)N=C(N)N
Could you determine which record has the numerically smaller IC50? Candidates: a and b // respond with label for picked entry
b

(I) CS(=O)(=O)c1cc(C(=O)N=C(N)N)ccc1-n1cccn1
(II) CSc1cc(C)c(C(=O)N=C(N)N)cc1S(C)(=O)=O
From the items above, decide which of I and II has the lower IC50 reading. State the label of the item chosen.
II

(P) CS(=O)(=O)c1cc(C(=O)N=C(N)N)ccc1N1CCC(N)CC1
(Q) Cc1cc(F)c(S(C)(=O)=O)cc1C(=O)N=C(N)N
(R) Cc1cc(Oc2ccc(Cl)cc2)c(S(C)(=O)=O)cc1C(=O)N=C(N)N
(S) CS(=O)(=O)c1cc(C(=O)N=C(N)N)ccc1Oc1cncc(Cl)c1
Please list the entries, largest IC50 first. Rank the items, then write their labels in that order.
P, S, Q, R
(P: 160 nM, S: 75 nM, Q: 44 nM, R: 13 nM)

(1) Cc1c(C(=O)N=C(N)N)cc(S(C)(=O)=O)c(Cl)c1C
(2) Cc1cc(Nc2ccccc2)c(S(C)(=O)=O)cc1C(=O)N=C(N)N
Of 1 versus 2 , which is the one with smaller reported IC50? Bench note: the answer is the label of the chosen record.
2
(2: 21 nM, 1: 58 nM)

(a) CS(=O)(=O)c1cc(C(=O)N=C(N)N)c(Cl)cc1N1CCC(N)CC1
(b) Cc1c(C(=O)N=C(N)N)cc(S(C)(=O)=O)c(Cl)c1Cl
Of the two listed items, which has the higher IC50? First: a Second: b Your answer should be the label attached to the chosen record.
b
(b: 29 nM, a: 20 nM)
